# testSummary: qHTS RealTime-Glo MT Cell Viability Assay in HEK293 cells - 40 hour (AID 1224874); further: on the % scale 0 is the no-effect control and ±100 the full control effect; nearly all actives have a fitted effect of over 50% in size
# measurementSetup: RealTime-Glo luminescence; active compounds read low
Results filed as inconclusive are left out. Calls of active or inactive are those of the source. The call rests on the fitted dose curve; in most records, active means well fitted cell-killing curve with a large enough effect in the repeat runs; inconclusive means weak or mixed curves, or effect the other way; inactive means flat fitted curve, though single readings scatter.
metric: max response

Examples from the recorded data:
O=C(O)C[C@H](O)C[C@H](O)/C=C/c1c(C2CC2)nc2ccccc2c1-c1ccc(F)cc1 : -20.4% (inactive)
Nc1ccc(F)c([N+](=O)[O-])c1 : 4.61% (inactive)
CCc1c(C)cc(N)c(CC)c1N : 1.8% (inactive)
CC(C)=NNC(N)=S : 3.34% (inactive)
C=CC(C)(C)O : 6.97% (inactive)
CCN(CC)c1ccc(C=O)c(O)c1 : -15% (inactive)

molecule Cc1ccc2n[nH]nc2c1 , max response observed: -0.793% (inactive)

Origin of values: PubChem BioAssay (Tox21)
